test system: Molt-4 cells; assay: Molt-4 cell killing activity test (CCK-8); type: cell-based; settings: Homo sapiens, 72 h; Molt-4 cells, three days, CCK-8; read-out: EC50 (Molt-4)
pEC50: −log10 of the molar value.
measurement-kind: pEC50

compound="O=C1CCN(c2ccc(OCCN3CCC(CN4CCN(CC#Cc5ccc(OCCCc6ccc(N7CCc8cccc(C(=O)Nc9nc%10ccccc%10s9)c8C7)nc6C(=O)O)c(F)c5)CC4)CC3)cc2)C(=O)N1 [APQ8]" experimental_system="Molt-4 cells" measurement="7.00 to 8.00"
compound="Cc1c(-c2ccc(N3CCc4cccc(C(=O)Nc5nc6ccccc6s5)c4C3)nc2C(=O)NCCOCCOCCNc2cccc3c2C(=O)N(C2CCC(=O)NC2=O)C3=O)cnn1CC12CC3CC(CC(C3)C1)C2 (centres unmarked) [APF2]" experimental_system="Molt-4 cells" measurement="> 8.00"
compound="COc1cc(N2CCN(CC#Cc3ccc(OCCCc4ccc(N5CCc6cccc(C(=O)Nc7nc8ccccc8s7)c6C5)nc4C(=O)O)c(F)c3)CC2)ccc1N1CCC(=O)NC1=O [APQ902a]" experimental_system="Molt-4 cells" measurement="> 8.00"
compound="O=C1CCN(c2ccc(N3CCN(C(=O)CCCN4CCN(CC#Cc5ccc(OCCCc6ccc(N7CCc8cccc(C(=O)Nc9nc%10ccccc%10s9)c8C7)nc6C(=O)O)c(F)c5)CC4)CC3)cc2)C(=O)N1 [APQ5b]" experimental_system="Molt-4 cells" measurement="7.00 to 8.00"
compound="Cc1cc([C@H](C(=O)N2C[C@H](O)C[C@H]2C(=O)N[C@@H](CC(=O)N2CCC(CCN3CCN(CC#Cc4ccc(OCCCc5ccc(N6CCc7cccc(C(=O)Nc8nc9ccccc9s8)c7C6)nc5C(=O)O)c(F)c4)CC3)CC2)c2ccc(Cl)cc2)C(C)C)on1 [APH105]" experimental_system="Molt-4 cells" measurement="> 8.00"

---

system: Molt-4 cells; assay: Molt-4 cell killing activity test (CCK-8); assay type: cell-based; settings: Homo sapiens, 72 h; Molt-4 cells, three days, CCK-8; read-out: EC50 (Molt-4)
measurement-kind: EC50

compound="Cc1c(-c2ccc(N3CCc4cccc(C(=O)Nc5nc6ccccc6s5)c4C3)nc2C(=O)NCCn2cc(COCCOCCOCCOCCNc3cccc4c3C(=O)N(C3CCC(=O)NC3=O)C4=O)nn2)cnn1CC12CC3CC(CC(C3)C1)C2 (centres unmarked)" measurement="< 10 nM"
compound=CC(C)(C)OC(=O)c1nc(N2CCc3cccc(C(=O)Nc4nc5ccccc5s4)c3C2)ccc1CCCOc1ccc(C#CCN2CCN(CC3CCN(c4ccc(N5CCC(=O)NC5=O)cc4)CC3)CC2)cc1F measurement="> 1000 nM"
compound="Cc1c(-c2ccc(N3CCc4cccc(C(=O)Nc5nc6ccccc6s5)c4C3)nc2C(=O)O)cnn1CC12CC3CC(CC(C3)C1)C2 [Compound A-1331852, A-1331852, reference compound]" measurement="< 10 nM"
compound=Cc1ncsc1-c1ccc([C@H](C)NC(=O)[C@@H]2C[C@@H](O)CN2C(=O)[C@@H](NC(=O)CN2CCN(CC#Cc3ccc(OCCCc4ccc(N5CCc6cccc(C(=O)Nc7nc8ccccc8s7)c6C5)nc4C(=O)O)c(F)c3)CC2)C(C)(C)C)cc1 measurement="10 to 100 nM"
compound="Cc1c(-c2ccc(N3CCc4cccc(C(=O)Nc5nc6ccccc6s5)c4C3)nc2C(=O)NCCn2cc(COCCOCCNc3cccc4c3C(=O)N(C3CCC(=O)NC3=O)C4=O)nn2)cnn1CC12CC3CC(CC(C3)C1)C2 (centres unmarked)" measurement="< 10 nM"

---

assay: Metabolic stability assay in liver microsomes (mouse); assay type: in vitro ADME; conditions: mouse liver microsomes 0.5 mg/mL; 1 µM compound; 37°C
Each item that follows carries a reported half-life at 1 µM.
measurement-kind: half-life at 1 µM (h)

compound="O=C1CCC(N2C(=O)c3cccc(NCCN4CCC(CN5CCN(CC#Cc6ccc(OCCCc7ccc(N8CCc9cccc(C(=O)Nc%10nc%11ccccc%11s%10)c9C8)nc7C(=O)O)c(F)c6)CC5)CC4)c3C2=O)C(=O)N1 (centres unmarked)" measurement_kind="half-life at 1 µM" unit_spec=h measurement=5.37
compound=O=C(Nc1nc2ccccc2s1)c1cccc2c1CN(c1ccc(CCCOc3ccc(C#CCN4CCNCC4)cc3F)c(C(=O)O)n1)CC2 measurement_kind="half-life at 1 µM" unit_spec=h measurement=4.71

---

Each entry below carries its recorded Clint.
experiment: Metabolic stability assay in liver microsomes (mouse); assay type: in vitro ADME; conditions: mouse liver microsomes 0.5 mg/mL; 1 µM compound; 37°C
measurement-kind: Clint (µL/min/mg protein)

compound="O=C1CCC(N2C(=O)c3cccc(NCCN4CCC(CN5CCN(CC#Cc6ccc(OCCCc7ccc(N8CCc9cccc(C(=O)Nc%10nc%11ccccc%11s%10)c9C8)nc7C(=O)O)c(F)c6)CC5)CC4)c3C2=O)C(=O)N1 (stereo not shown)" measurement=4.30
compound=O=C(Nc1nc2ccccc2s1)c1cccc2c1CN(c1ccc(CCCOc3ccc(C#CCN4CCNCC4)cc3F)c(C(=O)O)n1)CC2 measurement=4.90
compound="[2H]c1c([2H])c([2H])c2sc(NC(=O)c3cccc4c3CN(c3ccc(-c5cnn(CC67CC8CC(CC(C8)C6)C7)c5C)c(C(=O)O)n3)CC4)nc2c1[2H] [Compound A13D-1]" measurement=266.89
compound="[2H]C1([2H])CN(c2ccc(-c3cnn(CC45CC6CC(CC(C6)C4)C5)c3C)c(C(=O)O)n2)Cc2c(C(=O)Nc3nc4ccccc4s3)cccc21 [Compound A13D-5]" measurement=17.61

---

test: Metabolic stability assay in liver microsomes (mouse); type: in vitro ADME; conditions: mouse liver microsomes 0.5 mg/mL; 1 µM compound; 37°C
Measured Clint of individual entries
measurement-kind: Clint (µL/min/mg protein)

compound="[2H]C1([2H])Cc2cccc(C(=O)Nc3nc4ccccc4s3)c2CN1c1ccc(-c2cnn(CC34CC5CC(CC(C5)C3)C4)c2C)c(C(=O)O)n1 [Compound A13D-6]" measurement_kind=Clint measurement=14.07
compound="Cc1c(-c2ccc(N3CCc4cccc(C(=O)Nc5nc6ccccc6s5)c4C3)nc2C(=O)O)cnn1CC12CC3CC(CC(C3)C1)C2 [Compound A-1331852, A-1331852, reference compound]" measurement_kind=Clint measurement=18.43
compound="[2H]C1([2H])c2c(C(=O)Nc3nc4ccccc4s3)cccc2C([2H])([2H])C([2H])([2H])N1c1ccc(-c2cnn(CC34CC5CC(CC(C5)C3)C4)c2C)c(C(=O)O)n1 [Compound A13D-2]" measurement_kind=Clint measurement=18.15

---

tested on: Molt-4 cells; experiment: Molt-4 cell killing activity test (CCK-8); assay type: cell-based; details: Homo sapiens, 72 h; Molt-4 cells, three days, CCK-8; read-out: EC50 (Molt-4)
measurement-kind: EC50

molecule="CN[C@@H](C)C(=O)N[C@H](C(=O)N1CCC[C@H]1c1nc(C(=O)c2cccc(OCCN3CCC(CN4CCN(CC#Cc5ccc(OCCCc6ccc(N7CCc8cccc(C(=O)Nc9nc%10ccccc%10s9)c8C7)nc6C(=O)O)c(F)c5)CC4)CC3)c2)cs1)C1CCCCC1 [APL-1]" experimental_system="Molt-4 cells" measurement_kind=EC50 measurement="10 to 100 nM"
molecule="O=C(Nc1nc2ccccc2s1)c1cccc2c1CN(c1ccc(CCCOc3ccc(C#CCN4CCNCC4)cc3F)c(C(=O)O)n1)CC2 [Compound C1]" experimental_system="Molt-4 cells" measurement_kind=EC50 measurement="10 to 100 nM"
molecule="O=C1CCN(c2ccc(N3CCN(C4CCN(CC#Cc5ccc(OCCCc6ccc(N7CCc8cccc(C(=O)Nc9nc%10ccccc%10s9)c8C7)nc6C(=O)O)c(F)c5)CC4)CC3)cc2)C(=O)N1 [APQ7a]" experimental_system="Molt-4 cells" measurement_kind=EC50 measurement="< 10 nM"

---

# reported pEC50; entries follow
system: Molt-4 cells; assay: Molt-4 cell killing activity test (CCK-8); assay type: cell-based; conditions: Homo sapiens, 72 h; Molt-4 cells, three days, CCK-8; read-out: EC50 (Molt-4)
pEC50: −log10 of the molar value.
measurement-kind: pEC50

molecule=O=C1CCN(c2cc(F)c(N3CCN(CC#Cc4ccc(OCCCc5ccc(N6CCc7cccc(C(=O)Nc8nc9ccccc9s8)c7C6)nc5C(=O)O)c(F)c4)CC3)cc2F)C(=O)N1 measurement_kind=pEC50 measurement="> 8.00"
molecule=Cc1ncsc1-c1ccc([C@H](C)NC(=O)[C@@H]2C[C@@H](O)CN2C(=O)[C@@H](NC(=O)CCN2CCC(CN3CCN(CC#Cc4ccc(OCCCc5ccc(N6CCc7cccc(C(=O)Nc8nc9ccccc9s8)c7C6)nc5C(=O)O)c(F)c4)CC3)CC2)C(C)(C)C)cc1 measurement_kind=pEC50 measurement="7.00 to 8.00"
molecule=O=C1CCN(c2ccc(N3CCC(CN4CCN(CC#Cc5ccc(OCCCc6ccc(N7CCc8cccc(C(=O)Nc9nc%10ccccc%10s9)c8C7)nc6C(=O)O)c(F)c5)CC4)CC3)cc2)C(=O)N1 measurement_kind=pEC50 measurement="> 8.00"
molecule=O=C1CCN(c2ccc(N3CCN(CC4CCN(CC#Cc5ccc(OCCCc6ccc(N7CCc8cccc(C(=O)Nc9nc%10ccccc%10s9)c8C7)nc6C(=O)O)c(F)c5)CC4)CC3)cc2)C(=O)N1 measurement_kind=pEC50 measurement="7.00 to 8.00"
molecule="O=C1CCC(n2nnc3ccc(NCCN4CCC(CN5CCN(CC#Cc6ccc(OCCCc7ccc(N8CCc9cccc(C(=O)Nc%10nc%11ccccc%11s%10)c9C8)nc7C(=O)O)c(F)c6)CC5)CC4)cc3c2=O)C(=O)N1 (stereo not drawn)" measurement_kind=pEC50 measurement="> 8.00"
molecule="O=C1CCC(N2C(=O)c3cccc(NCCN4CCC(CN5CCN(CC#Cc6ccc(OCCCc7ccc(N8CCc9cccc(C(=O)Nc%10nc%11ccccc%11s%10)c9C8)nc7C(=O)O)c(F)c6)CC5)CC4)c3C2=O)C(=O)N1 (stereo not drawn)" measurement_kind=pEC50 measurement="> 8.00"
molecule=O=C1CCN(c2ccc(N3CCN(CC#Cc4ccc(OCCCc5ccc(N6CCc7cccc(C(=O)Nc8nc9ccccc9s8)c7C6)nc5C(=O)O)c(F)c4)CC3)cc2)C(=O)N1 measurement_kind=pEC50 measurement="> 8.00"
molecule=O=C1CCN(c2ccc(N3CC(CN4CCN(CC#Cc5ccc(OCCCc6ccc(N7CCc8cccc(C(=O)Nc9nc%10ccccc%10s9)c8C7)nc6C(=O)O)c(F)c5)CC4)C3)cc2)C(=O)N1 measurement_kind=pEC50 measurement="7.00 to 8.00"
molecule=O=C1CCN(c2ccc(N3CCN(C(=O)CCN4CCN(CC#Cc5ccc(OCCCc6ccc(N7CCc8cccc(C(=O)Nc9nc%10ccccc%10s9)c8C7)nc6C(=O)O)c(F)c5)CC4)CC3)cc2)C(=O)N1 measurement_kind=pEC50 measurement="> 8.00"
